- protocolNotes: modulators of HCV replicon luciferase signal, primary screen, HCV replication inhibitor project, Huh7 cells, luciferase reporter (AID 1109);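 further: huh7 hepatoma cells harbouring a luciferase neomycin HCV replicon reporter; luciferase luminescence as measure of HCV replicon replication; test concentration not given here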
- appliedConditions: 48 h, higher = more signal
measuredParameter: z-score
Give the value as a plain number.

Example compounds with recorded z-score:
COc1ccc(CCNC(=O)[C@@]2(C)c3ccccc3C(=O)N(Cc3cc(F)cc(C(F)(F)F)c3)[C@H]2c2ccc(CO)cc2)cc1: -0.928
COCC(=C=CC[C@H](O)c1ccccc1OCCO)C[C@H](O)c1cc(Cl)cc(Cl)c1O: -4.43

For the compound "CC(C)(C)C(=O)N[C@@H](c1ccc(Cl)cc1)[C@]1(C)C[C@H]1C1CCCCC1" , what z-score is on record?
-0.409

Quick one: "COCCOC(=O)N1C(=O)[C@@]2(c3cc(C#CC4=CCCCC4)ccc31)[C@H](C(=O)Nc1nc3ccccc3s1)[C@H]1C(=O)O[C@H](c3ccccc3)[C@H](c3ccccc3)N1[C@@H]2c1ccccc1OCCO"
-1.66

Quick one: "C=CCNC(=O)[C@@H]1[C@H]2C(=O)O[C@H](c3ccccc3)[C@H](c3ccccc3)N2[C@H](c2ccc(OCCO)cc2)[C@@]12C(=O)Nc1ccc(C#Cc3ccc(OC)cc3)cc12"
-1.87

Quick one: "COC(=O)[C@@]1(Cc2ccc(F)cc2)[C@H]2c3cc(C(=O)N(C)C)n(Cc4nc5ccccc5[nH]4)c3C[C@H]2CN1C(=O)c1ccccc1"
-0.494
